Parameter: pIC50. Scope: all listed entries.
- Experimental protocol: Cytotoxicity against human Lipo cells by SRB assay
- Format: functional, cell-based
pIC50: −log10 of the molar value.

The recorded pIC50 for COC(=O)[C@@]1(C)CC[C@]2(C)CC[C@]3(C)C(=CC(=O)[C@@H]4[C@@]5(C)CC[C@H](O[C@H]6O[C@H](CO)[C@@H](O)[C@H](O)[C@@H]6O)C(C)(C)[C@@H]5CC[C@]43C)[C@@H]2C1 is < 4.52

---
Reported pIC50 for COC(=O)[C@@]1(C)CC[C@]2(C)CC[C@]3(C)C(=CC(=O)[C@@H]4[C@@]5(C)CC[C@H](O[C@@H]6OC[C@@H](O)[C@H](O)[C@H]6O)C(C)(C)[C@@H]5CC[C@]43C)[C@@H]2C1 was < 4.52

---

// reported pIC50 per item
- Test system: MCF7
- Experimental protocol: Cytotoxicity against human MCF7 cells by SRB assay
- Assay type: functional, cell-based
Keep it numeric: pIC50 is minus log10 of the concentration in mol/L.

Note to self: pIC50 recorded for COC(=O)[C@@]1(C)CC[C@]2(C)CC[C@]3(C)C(=CC(=O)[C@@H]4[C@@]5(C)CC[C@H](O[C@H]6O[C@H](CO)[C@@H](O)[C@H](O)[C@@H]6O)C(C)(C)[C@@H]5CC[C@]43C)[C@@H]2C1 was 5.02

Next:
Recorded pIC50 (compound COC(=O)[C@@]1(C)CC[C@]2(C)CC[C@]3(C)C(=CC(=O)[C@@H]4[C@@]5(C)CC[C@H](O[C@@H]6O[C@H](CO)[C@H](O)[C@H](O)[C@H]6O)C(C)(C)[C@@H]5CC[C@]43C)[C@@H]2C1 ): 4.70

---

- Experimental protocol: Cytotoxicity against human SW1736 cells by SRB assay
- Format: functional, cell-based
- Settings: SW-1736
Reported IC50 values follow for various molecules

Below: 2 molecules and their reported IC50.
Form: molecule = COC(=O)[C@@]1(C)CC[C@]2(C)CC[C@]3(C)C(=CC(=O)[C@@H]4[C@@]5(C)CC[C@H](O[C@H]6O[C@H](CO)[C@@H](O)[C@H](O)[C@@H]6O)C(C)(C)[C@@H]5CC[C@]43C)[C@@H]2C1 ; IC50 = 11.2 µM

Data point: COC(=O)[C@@]1(C)CC[C@]2(C)CC[C@]3(C)C(=CC(=O)[C@@H]4[C@@]5(C)CC[C@H](O[C@H]6OC[C@@H](O)[C@@H](O)[C@@H]6O)C(C)(C)[C@@H]5CC[C@]43C)[C@@H]2C1 ; IC50 = > 30 µM

Here is another molecule to look at.
IC50 recorded for this molecule, COC(=O)[C@@]1(C)CC[C@]2(C)CC[C@]3(C)C(=CC(=O)[C@@H]4[C@@]5(C)CC[C@H](O[C@@H]6OC[C@H](O)[C@H](O)[C@H]6O)C(C)(C)[C@@H]5CC[C@]43C)[C@@H]2C1 , is > 30 µM

---

A collection of molecules and their measured IC50
- System: MCF7
- Experimental protocol: Cytotoxicity against human MCF7 cells by SRB assay
- Assay type: functional, cell-based
Your answer should be a plain number; it is taken to be in µM.

Recorded result, COC(=O)[C@@]1(C)CC[C@]2(C)CC[C@]3(C)C(=CC(=O)[C@@H]4[C@@]5(C)CC[C@H](O[C@@H]6O[C@@H](C)[C@H](O)[C@@H](O)[C@H]6O)C(C)(C)[C@@H]5CC[C@]43C)[C@@H]2C1 , IC50: 19.6

Here is another molecule to look at.
Lab note: measured IC50 of COC(=O)[C@@]1(C)CC[C@]2(C)CC[C@]3(C)C(=CC(=O)[C@@H]4[C@@]5(C)CC[C@H](O[C@@H]6OC[C@H](O)[C@H](O)[C@H]6O)C(C)(C)[C@@H]5CC[C@]43C)[C@@H]2C1 was 16.7
